// data source = ChEMBL document CHEMBL1201862

Target: Streptokinase A (Streptococcus pyogenes serotype M1)
Sequence (P10520 whole entry): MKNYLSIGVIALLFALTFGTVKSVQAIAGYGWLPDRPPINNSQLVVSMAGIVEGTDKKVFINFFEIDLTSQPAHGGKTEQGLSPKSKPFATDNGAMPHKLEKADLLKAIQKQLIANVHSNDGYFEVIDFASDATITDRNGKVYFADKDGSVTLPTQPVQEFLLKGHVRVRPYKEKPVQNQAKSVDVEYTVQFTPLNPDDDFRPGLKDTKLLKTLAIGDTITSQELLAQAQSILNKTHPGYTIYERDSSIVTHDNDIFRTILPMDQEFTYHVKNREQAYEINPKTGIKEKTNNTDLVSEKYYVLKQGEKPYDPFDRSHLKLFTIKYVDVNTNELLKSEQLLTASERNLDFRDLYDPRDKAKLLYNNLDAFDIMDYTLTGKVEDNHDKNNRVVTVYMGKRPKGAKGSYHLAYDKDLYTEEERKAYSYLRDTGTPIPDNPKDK
Assay: viability-normalized secreted streptokinase activity reduction – plasminogen activation absorbance, OD405, dose response (AID 1914);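 also: secreted streptokinase activity via plasminogen activation per viability signal from cell pellet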
Format: functional, Streptococcus pyogenes M1 GAS
Active and inactive are the calls of the source. Rule as the data show it: actives have a measured EC50 and inactives only a lower limit.
observationType: EC50

# compound, observationType, result
rows = [
    ("Cc1cnc(NC(=O)c2cc3c(C)nn(-c4ccccc4)c3s2)s1", "EC50", "> 150 µM (not active)"),
    ("CC/N=C1\\S/C(=C\\c2ccc(-c3cccc(C(=O)O)c3)o2)C(=O)N1CC", "EC50", "> 150 µM (not active)"),
    ("CCC(CO)Nc1ncnc2c1cnn2-c1ccc(OC)cc1 (stereo unspecified)", "EC50", "> 150 µM (not active)"),
    ("N=C(N)N/N=C1C=C/C(=N\\NC(N)=S)C=C\\1 [AMBAZONE]", "EC50", "> 150 µM (not active)"),
    ("Cc1cccc2nc(COc3ccc4ccccc4c3Br)cn12", "EC50", "> 150 µM (not active)"),
    ("Cc1cccc(/C=C2\\Sc3ccc(C(=O)N4CCC(C)CC4)cc3N(C)C2=O)c1", "EC50", "20.3 µM (active)"),
]
